Each recorded value in this set is attributed to patent US20240010684A1.

# system_name: T1, recombinant rat MASP1 (amino acids 302-704, C-terminal His Tag) (rat, UniProt Q8CHN8 302-704)
# T1 sequence: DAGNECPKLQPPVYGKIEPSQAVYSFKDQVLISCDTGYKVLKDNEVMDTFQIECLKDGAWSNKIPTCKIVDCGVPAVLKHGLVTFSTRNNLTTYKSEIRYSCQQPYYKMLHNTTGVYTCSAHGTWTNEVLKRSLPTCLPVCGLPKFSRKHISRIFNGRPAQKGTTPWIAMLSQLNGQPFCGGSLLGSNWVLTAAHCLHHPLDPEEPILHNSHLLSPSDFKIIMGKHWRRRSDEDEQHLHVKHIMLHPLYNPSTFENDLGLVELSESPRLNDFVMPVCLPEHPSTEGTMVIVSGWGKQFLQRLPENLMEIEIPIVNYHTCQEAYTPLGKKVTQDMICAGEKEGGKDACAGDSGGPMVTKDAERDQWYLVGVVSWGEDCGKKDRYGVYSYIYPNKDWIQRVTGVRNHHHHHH
# assay_remarks: cell-based or functional assay
Bridges are numbered along the chain shown (N, C = ends). [ ]: non-standard residue; d: D form. Trx = NC[C@H]1CC[C@H](C(=O)O)CC1; tBuAla = CC(C)(C)C[C@H](N)C(=O)O; Pen = CC(C)(S)[C@H](N)C(=O)O; Ahx = NCCCCCC(=O)O; GABA = NCCCC(=O)O
readout_kind: rat MASP1 IC50

1) cyclo([GABA]ICSRS[tBuAla]PPI[Pen]IPD) (disulfide 3-11; also: TFA salt) [Example 35: (Gamma-Abu)**-IC+SRS-((tBu)A)-PPI-(Pen)+-IPD**]; 63 nM
2) cyclo([Ahx][Trx]ICSRS[tBuAla]PPI[Pen]IP) (disulfide 4-12; also: TFA salt) [Example 59: (Ahx)**-(TXA)-IC+SRS-((tBu)A)-PPI-(Pen)+-IP**]; 48.6 nM
3) cyclo(AGGICSRS[tBuAla]PPI[Pen]IP[dD]) (disulfide 5-13; also: TFA salt) [Example 39: A**GGIC+SRS-((tBu)A)-PPI-(Pen)+-IPd**]; 44 nM
4) cyclo([Ahx]AICSRS[tBuAla]PPI[Pen]I) (disulfide 4-12; also: TFA salt) [Example 72: (Ahx)**-AIC+SRS-((tBu)A)-PPI-(Pen)+-I**]; 85 nM
